Molecular target: MARV Musoke GPe[change] (Marburg virus, Musoke strain, UniProt P35253 19-636)
Test: cross reactivity with GPeΔmuc, summary table
Quantity Name: binding result

| Binder | Endpoint Result |
| --- | --- |
| CAN30G4 (antibody, V domains shown) VH: EVKLVESGGGLVKSGGSLKLSCAVSGFTFSTYAMSWVRQIPEKRLEWVATISNGGSYIYYSDSVKGRFTISRDNAKNTLYLQMSSLRSEDTAMYYCARHRESYRYDWFAYWGQGTLVTVSA VL: DVLMTQTPLSLPVSLGDQASISCRSSQNIVHSDGNTYLEWYLQKPGQSPKLLIYKFSNRFSGVPDRFSGSGSGTDFTLKISRVEAEDLGVYYCFQGSHVPPTFGAGTKLELK | binds |
| CAN40G1 (antibody, V domains shown) VH: EVQLQQSGPELVKPGASVKISCRTSGYTFTEYTIHWVKQSRGKSLEWIGGINPNHGGTLYNQKFKVKATLTVDKSSSTAYMELRSLTSEDSAVYYCARFTYDYWGQGTTLTVSS VL: DIVLTQSPASLAVSLGQRASISCKASQSVDHDGDSYMNWYQQKPGQPPKLLIYATSNLESGIPARFSGSGSGTDFTLNIHPVEEEDAATYYCQQSYEVPLTFGAGTKLELK | binds |
| CAN30G1 (antibody, V domains shown) VH: QIQLVQSGPELKKPGETVKISCKASGYTFTNYGMNWVKQAPGKGLKWMGWINTYTGKPTYVDDFKGRFAFSLETSANTAYLQINNLKNEDTATYFCESGGYDEDYWGQGTTLTVSS VL: ENVLTQSPAIMSASPGEKVTMTCSASSSVTYMHWYQQKSSTSPKLWIYDTSKLASGVPGRFSGSGSGNSYSLTISSMEAEDVATYYCFQGSGYPYTFGGGTKLEIK | binds |
